# Assay method text: PK of five RC components in sham operation administration (SDG, normal) rats after oral RC extract, HPLC-QQQ-MS/MS, DAS
# Format: in vivo, SD rats
# Condition summary: SD, rat, in vivo, po, 2 g/kg
# Experimental: The drug concentration in plasma was calculated using the standard curve, and the mean blood concentration was plotted against the time to obtain the mean blood concentration–time curve (Figure 4). The rat model of MI was made with Pit. The rats were divided into a sham operation group (SG), sham operation administration group (SDG), model group (MG), and model administration group (MDG) (n = 6 for each group). […]
Reported endpoint: Vd/F

Problem: What value of measured Vd/F is listed for O=C(O)c1cc(O)c(O)c(O)c1 [Gallic Acid, gallic acid] ?
Result: 116 L/kg

----------
# Assay method text: PK of five RC components in sham operation administration (SDG, normal) rats after oral RC extract, HPLC-QQQ-MS/MS, DAS
# Format: in vivo, SD rats
# Condition summary: rat, in vivo; SDG rats, oral RC extract 2 g/kg, plasma, mean ± SD, n = 6; read-out: Vz/F
Reported endpoint: Vd/F (L/kg)
Give bare numbers, in L/kg.

Problem: // lookup Vd/F for O=c1c(O)c(-c2ccc(O)cc2)oc2cc(O)cc(O)c12
Result: 224

----------
# Assay method text: PK of five RC components in sham operation administration (SDG, normal) rats after oral RC extract, HPLC-QQQ-MS/MS, DAS
# Assay type: in vivo, SD rats
# Condition summary: SD, rat, in vivo, po, 2 g/kg
Reported endpoint: MRT (h)
Numbers only, in h.

Problem: Which MRT is reported for this molecule? O=C(O)c1cc(O)c(O)c(O)c1 [Gallic Acid, gallic acid]
Result: 4.32

----------
# Assay method text: PK of five RC components in sham operation administration (SDG, normal) rats after oral RC extract, HPLC-QQQ-MS/MS, DAS
# Assay type: in vivo, SD rats
# Condition summary: SD, rat, in vivo, po, 2 g/kg
Reported endpoint: AUC(0-inf) (ng·h/mL)
Give bare numbers, in ng·h/mL.

Problem: What value of AUC(0-inf) has been recorded for this entry: O=C(O)c1cc(O)c(O)c(O)c1 [Gallic Acid, gallic acid]
Result: 550

----------
# Assay method text: PK of five RC components in pituitrin-induced myocardial ischemia (MDG) rats after oral RC extract, HPLC-QQQ-MS/MS, DAS
# Assay type: in vivo, SD rats
# Condition summary: rat; MDG (myocardial ischemia) rats, oral RC extract 2 g/kg, plasma, mean ± SD, n = 6; read-out: AUC(0−∞)
Reported endpoint: AUC(0-inf) (µg·h/mL)
Numbers only, in µg·h/mL.

[
  {
    "Compound": "OCCc1ccc(O)cc1",
    "Uom": "µg·h/mL",
    "AUC(0-inf)": 1.1
  }
]

Switching to the query record.
Problem: Fill blank: measured AUC(0-inf) of the compound OC[C@H]1O[C@@H](OCCc2ccc(O)cc2)[C@H](O)[C@@H](O)[C@@H]1O [Salidroside, salidroside] is ____.
Result: 10

----------
# Assay method text: PK of five RC components in sham operation administration (SDG, normal) rats after oral RC extract, HPLC-QQQ-MS/MS, DAS
# Assay type: in vivo, SD rats
# Condition summary: rat, in vivo; SDG rats, oral RC extract 2 g/kg, plasma, mean ± SD, n = 6; read-out: AUC(0−t)
# Method: The drug concentration in plasma was calculated using the standard curve, and the mean blood concentration was plotted against the time to obtain the mean blood concentration–time curve (Figure 4). The rat model of MI was made with Pit. The rats were divided into a sham operation group (SG), sham operation administration group (SDG), model group (MG), and model administration group (MDG) (n = 6 for each group). […]
Reported endpoint: AUC(0-t) (ng·h/mL)
Numbers only, in ng·h/mL.

Problem: # get_value(readout='AUC(0-t)', item= O=c1c(O)c(-c2ccc(O)cc2)oc2cc(O)cc(O)c12 )
Result: 306
